Assay Target: JHDM1A (Homo sapiens)
Sequence (Q9Y2K7 1-1162): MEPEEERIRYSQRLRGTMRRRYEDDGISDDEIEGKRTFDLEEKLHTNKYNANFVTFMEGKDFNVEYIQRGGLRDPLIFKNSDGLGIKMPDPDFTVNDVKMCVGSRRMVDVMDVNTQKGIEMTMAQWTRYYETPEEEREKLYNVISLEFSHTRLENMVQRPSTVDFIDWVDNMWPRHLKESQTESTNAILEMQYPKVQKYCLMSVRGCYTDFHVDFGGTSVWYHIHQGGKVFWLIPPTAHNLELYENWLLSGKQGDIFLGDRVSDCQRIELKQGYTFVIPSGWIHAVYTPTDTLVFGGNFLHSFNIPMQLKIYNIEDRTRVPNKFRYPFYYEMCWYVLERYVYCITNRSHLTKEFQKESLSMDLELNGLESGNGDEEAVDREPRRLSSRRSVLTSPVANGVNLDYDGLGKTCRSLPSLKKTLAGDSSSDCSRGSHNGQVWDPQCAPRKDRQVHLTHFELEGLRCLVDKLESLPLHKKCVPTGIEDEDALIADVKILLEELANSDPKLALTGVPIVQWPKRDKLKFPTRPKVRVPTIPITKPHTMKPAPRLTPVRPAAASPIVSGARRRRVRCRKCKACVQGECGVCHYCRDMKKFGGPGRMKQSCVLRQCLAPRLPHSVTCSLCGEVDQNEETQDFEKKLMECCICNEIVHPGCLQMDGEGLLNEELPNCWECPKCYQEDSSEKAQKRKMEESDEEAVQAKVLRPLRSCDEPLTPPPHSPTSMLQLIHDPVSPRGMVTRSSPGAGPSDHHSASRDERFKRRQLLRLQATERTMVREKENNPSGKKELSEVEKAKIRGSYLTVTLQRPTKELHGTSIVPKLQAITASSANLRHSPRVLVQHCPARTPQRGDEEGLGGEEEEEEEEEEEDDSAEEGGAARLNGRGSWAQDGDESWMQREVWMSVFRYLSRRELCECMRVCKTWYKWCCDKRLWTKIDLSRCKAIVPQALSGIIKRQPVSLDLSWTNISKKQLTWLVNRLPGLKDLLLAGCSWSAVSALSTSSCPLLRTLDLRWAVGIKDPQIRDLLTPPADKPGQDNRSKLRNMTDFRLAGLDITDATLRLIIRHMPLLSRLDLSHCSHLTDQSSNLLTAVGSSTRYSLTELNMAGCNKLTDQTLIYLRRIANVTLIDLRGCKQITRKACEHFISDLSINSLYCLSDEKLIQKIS
Measured Metric: pKd
Interpret pKd as the negative base-10 log of the concentration measured in mol/L.

Would you kindly share the measured pKd for `NCc1ccc(CN(CCCCN(O)C(=O)/C=C/C(=O)O)C(=S)Nc2ccc(C3=C4C=CC(=O)C=C4Cc4cc(O)ccc43)c(C(=O)O)c2)cc1` ?
7.52

* * *

Tested on: H3K4me3 and H3K9me3 levels in KYSE150 cells
Method: Quantitative immunostaining assay of H3K4me3 and H3K9me3 in KYSE150 cells
Format: cell-based, human
Measurement Context: Homo sapiens, KYSE-150, 48 hours, immunostaining image quantification, read-out: EC50 for H3K9me3
Measured Metric: pEC50
Interpret pEC50 as the negative base-10 log of the concentration measured in mol/L.

Would you kindly share the measured pEC50 for `COC(=O)/C=C/C(=O)N(O)CCCCNCc1ccc(COC(=O)Nc2cccc3ccccc23)cc1` ?
5.07

* * *

System: H3K4me3 and H3K9me3 levels in KYSE150 cells
Method: Quantitative immunostaining assay of H3K4me3 and H3K9me3 in KYSE150 cells
Type: cell-based, human
Measurement Context: Homo sapiens, KYSE-150, 48 hours, immunostaining image quantification, read-out: EC50 for H3K4me3
Measured Metric: EC50 (µM)
Express it in µM; write the number only.

Would you kindly share the measured EC50 for COC(=O)/C=C/C(=O)N(O)CCCCNCc1ccc(COC(=O)Nc2cccc3ccccc23)cc1 [methylstat] ?
10.3
